- Assay target: human VR1 receptors (Homo sapiens, UniProt Q8NER1)
- Construct: cell type not specified
- Sequence (Q8NER1 whole entry): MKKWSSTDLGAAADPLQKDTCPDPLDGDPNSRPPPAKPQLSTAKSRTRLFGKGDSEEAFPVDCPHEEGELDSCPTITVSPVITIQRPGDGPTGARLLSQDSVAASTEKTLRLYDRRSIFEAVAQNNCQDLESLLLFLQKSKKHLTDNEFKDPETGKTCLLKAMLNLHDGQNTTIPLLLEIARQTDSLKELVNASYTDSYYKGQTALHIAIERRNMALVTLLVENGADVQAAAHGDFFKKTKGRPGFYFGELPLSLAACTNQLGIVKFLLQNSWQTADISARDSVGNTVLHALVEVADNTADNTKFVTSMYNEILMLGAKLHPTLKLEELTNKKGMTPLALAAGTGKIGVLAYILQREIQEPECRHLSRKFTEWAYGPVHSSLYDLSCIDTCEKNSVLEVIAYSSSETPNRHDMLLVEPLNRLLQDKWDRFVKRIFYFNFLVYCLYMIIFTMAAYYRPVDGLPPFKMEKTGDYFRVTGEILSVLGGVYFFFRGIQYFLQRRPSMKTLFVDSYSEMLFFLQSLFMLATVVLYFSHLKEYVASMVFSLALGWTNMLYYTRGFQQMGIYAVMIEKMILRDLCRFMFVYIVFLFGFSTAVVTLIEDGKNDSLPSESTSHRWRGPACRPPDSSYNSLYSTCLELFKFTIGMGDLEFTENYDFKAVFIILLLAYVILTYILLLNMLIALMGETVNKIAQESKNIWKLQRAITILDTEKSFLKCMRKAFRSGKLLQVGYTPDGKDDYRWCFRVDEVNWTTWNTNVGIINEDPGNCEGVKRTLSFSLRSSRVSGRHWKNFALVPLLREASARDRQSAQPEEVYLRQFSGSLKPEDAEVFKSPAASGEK
- Assay summary: Human VR1 antagonist assay (Ca2+ imaging)
- Recorded conditions: cells expressing human VR1, fura-2 Ca2+ imaging, FDSS 6000; capsaicin (300 nM) or acid (pH5.8) stimulation, table does not say which
Value type: IC50 (nM)

Sample records with IC50:
Cc1cc(CNC(=O)C2CC2(C)c2ccc(C(C)(C)C)cc2)ccc1NS(C)(=O)=O (stereo not drawn) = 40
CCc1cc([C@@H](C)NC(=O)C2CC2(C)c2cc(F)c(C(C)(C)C(F)(F)F)c(F)c2)ccc1NS(C)(=O)=O (single isomer, unassigned) = 8.5

P: Cc1cc([C@@H](C)NC(=O)[C@H]2C[C@]2(C)c2ccc(C(C)(C)C(F)(F)F)cc2)ncc1NS(C)(=O)=O
Q: Cc1cc([C@@H](C)NC(=O)[C@H]2C[C@]2(C)c2ccc(C(F)(F)F)cc2)ccc1NS(C)(=O)=O [Example 15]
R: C[C@@H](NC(=O)C1CC1(C)c1ccc(C(C)(C)C(F)(F)F)cc1)c1ccc(NS(C)(=O)=O)c(F)c1 (single isomer, unassigned)
S: C[C@@H](NC(=O)[C@H]1C[C@]1(C)c1ccc(C(F)(F)F)cc1)c1ccc(NS(C)(=O)=O)c(CO)c1
## Input Please rank these compounds by IC50 in descending order. Give your ranking as a list of the labels in the requested order.
## Output P, R, S, Q
(P: 197 nM, R: 50.5 nM, S: 1.2 nM, Q: 0.71 nM)
